biological target: T1, AAV8; assay: SPR, AAV on CM5 chip;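 further: surface plasmon resonance with AAV amine-coupled to the chip as ligand, nanobodies injected as analyte over a concentration series, rate constants and affinity fitted from binding curves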
T1 construct: also called adeno-associated virus serotype 8
Kindly return class 1 if reported koff is no lower than 0.0003 s⁻¹; return class 0 if it is lower.

Study these solved cases before continuing.
# check: koff of A4-004 (VHH) VHH: VQLQESGGGLVQPGGSLRLSCAASGSRFSINTMGWYRQAPGKQRELVAAVTRGGSTNYAGSVKGRFTISRDNAKNTVYLQMNSLRPEDTAVYYCHIDEVRQSSWTTSNIWGQGTQVTVSS is greater than or equal to 0.0003 s⁻¹
class 0

What about A4-014 (VHH) VHH: VQLQESGGGLVQPGGSLRLSCAASGSRFSINSMGWYRQAPGKQRELVATVTRGGNTNYAGSVKGRFTISRDNAKNTVYLQMNSLRPEDTAVYYCHVDEVRESSWTTSNLWGQGTQVTVSS ?
class 1

A4-008 (VHH) VHH: VQLQESGGGLVQAGGSLRLSCAASGRAFSINTMGWYRQAPPKQRELVATVTRGGSTNYAGSVKGRFTISRDNAKNTIYLQMNSLRPEDTAVYYCHVDEVRQSSWTTSNIWGQGTQVTVSS , same question.
class 1

---
Say whether A4-029 (VHH) VHH: VQLQESGGGLVQPGGSLRLSCAASGSNFSINTMGWYRQRAGKQRELVATVTRGGSTNYADSVKGRFTISRDNAKNTVYLQMNSLRPEDTAVYYCHIDEIRESSWTTSNLWGQGTQVTVSS shows koff of 0.0003 s⁻¹ or more.
class 0

And for A4-042 (VHH) VHH: VQLQESGGGLVQPGGSLRLSCAASGRAFSINTMGWYRQAPGKQRELVATVTRDGSTNYADSVKGRFTISRDNAKNTVYLQMNSLRPEDTAVYYCHVDEVRQSSWTTSNLWGQGTQVTVSS ?
class 1

# iterate: A4-032 (VHH) VHH: VQLQESGGGLVQPGGSLRLSCVASGSSFSINTMGWYRQAPGKQRELVATVTRDGSTNYANSVKGRFTISRDNAKNTVYLQMNSLRPEDTAVYYCHVDEVRQSSWTTSNLWGQGTQVTVSS
class 1
